# target: FGFR1 (Homo sapiens, UniProt P11362)
# Construct: purchased Millipore
# Sequence (P11362 22-822): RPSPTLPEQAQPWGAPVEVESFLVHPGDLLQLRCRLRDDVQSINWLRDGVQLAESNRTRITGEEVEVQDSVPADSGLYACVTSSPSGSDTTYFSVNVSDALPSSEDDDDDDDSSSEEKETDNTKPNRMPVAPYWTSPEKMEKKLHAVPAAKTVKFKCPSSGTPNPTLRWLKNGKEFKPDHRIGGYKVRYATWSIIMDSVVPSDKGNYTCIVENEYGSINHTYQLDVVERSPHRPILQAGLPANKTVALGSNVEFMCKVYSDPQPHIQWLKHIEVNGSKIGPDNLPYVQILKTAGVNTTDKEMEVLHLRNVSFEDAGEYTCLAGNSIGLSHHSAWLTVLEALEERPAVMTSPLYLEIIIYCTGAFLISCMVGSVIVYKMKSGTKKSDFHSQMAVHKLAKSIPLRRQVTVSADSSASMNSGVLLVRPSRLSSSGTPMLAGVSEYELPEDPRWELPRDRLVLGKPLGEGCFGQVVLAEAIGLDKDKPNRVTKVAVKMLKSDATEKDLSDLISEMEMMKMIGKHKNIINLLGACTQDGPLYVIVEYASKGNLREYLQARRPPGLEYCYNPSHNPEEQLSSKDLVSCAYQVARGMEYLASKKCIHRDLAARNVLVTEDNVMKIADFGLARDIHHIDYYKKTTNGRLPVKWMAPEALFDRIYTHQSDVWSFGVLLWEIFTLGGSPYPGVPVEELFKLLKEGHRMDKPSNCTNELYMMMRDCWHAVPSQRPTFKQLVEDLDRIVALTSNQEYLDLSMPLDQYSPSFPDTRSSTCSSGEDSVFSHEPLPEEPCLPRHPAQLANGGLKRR
# protocol-summary: ELISA kinase assay, FGFR1
# Assay type: biochemical
# condition: 10 μM compound; mean from two separate experiments
outcome-measure: inhibition at 10 µM (%)

Please review the entries below; each comes with its answer.
                         compound_structure      outcome_measure  measured_result
0      Cn1cc(-c2cnc3cnn(CCc4ccccc4)c3c2)cn1  inhibition at 10 µM             55.9
1  Cn1cc(-c2cnc3ccn(S(=O)(=O)c4ccc(Cl)c(Cl)c4)c3n2)cn1  inhibition at 10 µM             74.5
2  Cn1cc(-c2cnc3cnn(S(=O)(=O)c4ccccc4)c3c2)cn1  inhibition at 10 µM             87.8
3  Cn1cc(-c2cnc3ccn(S(=O)(=O)c4ccc(Cl)cc4)c3n2)cn1  inhibition at 10 µM             45.2
4  Cn1cc(-c2cnc3ccn(S(=O)(=O)c4ccc(F)cc4F)c3n2)cn1  inhibition at 10 µM             55.6
5  CCC(=O)Nc1cccc(S(=O)(=O)n2ccc3ncc(-c4cnn(C)c4)nc32)c1  inhibition at 10 µM             38.7

a: Cn1cc(-c2cnc3ccn(S(=O)(=O)c4ccc(N)cc4)c3n2)cn1
b: Cn1cc(-c2cnc3ccn(S(=O)(=O)c4ccc([N+](=O)[O-])cc4)c3n2)cn1
c: Cn1cc(-c2cnc3ccn(S(=O)(=O)c4cccc([N+](=O)[O-])c4)c3n2)cn1
Arrange these compounds by their inhibition at 10 µM, starting with the largest number. Please express your ranking as an ordered list of the labels. c, a, b

====

# target: FGFR1 (Homo sapiens, UniProt P11362)
# Construct: purchased Millipore
# protocol-summary: ELISA kinase assay, FGFR1
# Type: biochemical
# condition: 0.1 μM compound
outcome-measure: inhibition at 0.1 µM (%)

In [3]: df
Out[3]:
                         compound_structure                                target  units  measured_result
0  COc1cccc2cc(-c3cnc4ccn(S(=O)(=O)c5cccc([N+](=O)[O-])c5)c4n3)[nH]c12  FGFR1 (Homo sapiens, UniProt P11362)      %               34
1  Cn1cc(-c2cnc3ccn(S(=O)(=O)c4ccc(Cl)cc4)c3n2)cn1  FGFR1 (Homo sapiens, UniProt P11362)      %               22
2  Cn1cc(-c2cnc3ccn(S(=O)(=O)c4ccc(Cl)c(Cl)c4)c3n2)cn1  FGFR1 (Homo sapiens, UniProt P11362)      %             13.6
3  Cn1cc(-c2cnc3ccn(S(=O)(=O)C4CCCC4)c3n2)cn1  FGFR1 (Homo sapiens, UniProt P11362)      %             26.8
4  Cn1cc(-c2cnc3ccn(S(=O)(=O)C4CCCCC4)c3n2)cn1  FGFR1 (Homo sapiens, UniProt P11362)      %             29.4
5  CC(=O)c1ccc(-c2cnc3ccn(S(=O)(=O)c4cccc([N+](=O)[O-])c4)c3n2)cc1  FGFR1 (Homo sapiens, UniProt P11362)      %             35.7

P: Cn1cc(-c2cnc3ccn(S(=O)(=O)c4ccc(F)cc4F)c3n2)cn1
Q: Cn1cc(-c2cnc3ccn(S(=O)(=O)c4ccccc4C#N)c3n2)cn1
Kindly identify the item with the lower inhibition at 0.1 µM figure among these two: P and Q Identify your selection by its label. P
(P: 23.6%, Q: 40.3%)

src = paper PMC6154558
